# remaining at 48 h, 2000 ng/mL per entry
# assayDetails: in vitro
# assayConditions: male, human, plasma, pH 7.8
Where a SMILES comes first, the peptide text is derived from it. [ ]: non-standard residue; d: D form. The star is where a group is joined. dPhe(4-NHCONH2) = NC(=O)Nc1ccc(C[C@@H](N)C(=O)O)cc1; Dihydroorotyl(S) = O=C1C[C@@H](C(=O)*)NC(=O)N1; dPhe(4-Cl) = N[C@H](Cc1ccc(Cl)cc1)C(=O)O; Phe(4-NH2) = Nc1ccc(C[C@H](N)C(=O)O)cc1; d2Nal = N[C@H](Cc1ccc2ccccc2c1)C(=O)O; Lys(iPr) = CC(C)NCCCC[C@H](N)C(=O)O; X1 = O=C1NC(=O)[C@H](CC(=O)*)N1; d3Pal = N[C@H](Cc1cccnc1)C(=O)O

[
  {
    "compound": "CC(=O)N[C@H](Cc1ccc2ccccc2c1)C(=O)N[C@H](Cc1ccc(Cl)cc1)C(=O)N[C@H](Cc1cccnc1)C(=O)N[C@@H](CO)C(=O)N[C@@H](Cc1ccc(NC(=O)C[C@@H]2NC(=O)NC2=O)cc1)C(=O)N[C@H](Cc1ccc(NC(N)=O)cc1)C(=O)N[C@@H](CC(C)C)C(=O)N[C@@H](CCCCNC(C)C)C(=O)N1CCC[C@H]1C(=O)N[C@H](C)C(N)=O [5‐Aph(Hyd)‐degarelix] (Ac-[d2Nal][dPhe(4-Cl)][d3Pal]S[Phe(4-NH2)](X1)[dPhe(4-NHCONH2)]L[Lys(iPr)]P[dA]-NH2)",
    "remaining at 48 h, 2000 ng/mL, %": 80
  },
  {
    "compound": "CC(=O)N[C@H](Cc1ccc2ccccc2c1)C(=O)N[C@H](Cc1ccc(Cl)cc1)C(=O)N[C@H](Cc1cccnc1)C(=O)N[C@@H](CO)C(=O)N[C@@H](Cc1ccc(NC(=O)[C@@H]2CC(=O)NC(=O)N2)cc1)C(=O)N[C@H](Cc1ccc(NC(N)=O)cc1)C(=O)N[C@@H](CC(C)C)C(=O)N[C@@H](CCCCNC(C)C)C(=O)N1CCC[C@H]1C(=O)N[C@H](C)C(N)=O [degarelix] (Ac-[d2Nal][dPhe(4-Cl)][d3Pal]S[Phe(4-NH2)](Dihydroorotyl(S))[dPhe(4-NHCONH2)]L[Lys(iPr)]P[dA]-NH2)",
    "remaining at 48 h, 2000 ng/mL, %": 74
  }
]

----------
# assayDetails: in vitro
# assayConditions: male, human, plasma, pH 7.8
Where a SMILES comes first, the peptide text is derived from it. [ ]: non-standard residue; d: D form. The star is where a group is joined. dPhe(4-NHCONH2) = NC(=O)Nc1ccc(C[C@@H](N)C(=O)O)cc1; Dihydroorotyl(S) = O=C1C[C@@H](C(=O)*)NC(=O)N1; dPhe(4-Cl) = N[C@H](Cc1ccc(Cl)cc1)C(=O)O; Phe(4-NH2) = Nc1ccc(C[C@H](N)C(=O)O)cc1; d2Nal = N[C@H](Cc1ccc2ccccc2c1)C(=O)O; Lys(iPr) = CC(C)NCCCC[C@H](N)C(=O)O; X1 = O=C1NC(=O)[C@H](CC(=O)*)N1; d3Pal = N[C@H](Cc1cccnc1)C(=O)O
remaining at 32 h, 2000 ng/mL by entry:
reportedProperty: remaining at 32 h, 2000 ng/mL (%)

[
  {
    "compound": "CC(=O)N[C@H](Cc1ccc2ccccc2c1)C(=O)N[C@H](Cc1ccc(Cl)cc1)C(=O)N[C@H](Cc1cccnc1)C(=O)N[C@@H](CO)C(=O)N[C@@H](Cc1ccc(NC(=O)C[C@@H]2NC(=O)NC2=O)cc1)C(=O)N[C@H](Cc1ccc(NC(N)=O)cc1)C(=O)N[C@@H](CC(C)C)C(=O)N[C@@H](CCCCNC(C)C)C(=O)N1CCC[C@H]1C(=O)N[C@H](C)C(N)=O [5‐Aph(Hyd)‐degarelix] (Ac-[d2Nal][dPhe(4-Cl)][d3Pal]S[Phe(4-NH2)](X1)[dPhe(4-NHCONH2)]L[Lys(iPr)]P[dA]-NH2)",
    "reportedProperty": "remaining at 32 h, 2000 ng/mL",
    "resultNumber": 91
  },
  {
    "compound": "CC(=O)N[C@H](Cc1ccc2ccccc2c1)C(=O)N[C@H](Cc1ccc(Cl)cc1)C(=O)N[C@H](Cc1cccnc1)C(=O)N[C@@H](CO)C(=O)N[C@@H](Cc1ccc(NC(=O)[C@@H]2CC(=O)NC(=O)N2)cc1)C(=O)N[C@H](Cc1ccc(NC(N)=O)cc1)C(=O)N[C@@H](CC(C)C)C(=O)N[C@@H](CCCCNC(C)C)C(=O)N1CCC[C@H]1C(=O)N[C@H](C)C(N)=O [degarelix] (Ac-[d2Nal][dPhe(4-Cl)][d3Pal]S[Phe(4-NH2)](Dihydroorotyl(S))[dPhe(4-NHCONH2)]L[Lys(iPr)]P[dA]-NH2)",
    "reportedProperty": "remaining at 32 h, 2000 ng/mL",
    "resultNumber": 91
  }
]

----------
Listed compounds paired with reported remaining at 8 h, 2000 ng/mL
# assayDetails: in vitro
# assayConditions: male, human, plasma, pH 7.8
Where a SMILES comes first, the peptide text is derived from it. [ ]: non-standard residue; d: D form. The star is where a group is joined. dPhe(4-NHCONH2) = NC(=O)Nc1ccc(C[C@@H](N)C(=O)O)cc1; Dihydroorotyl(S) = O=C1C[C@@H](C(=O)*)NC(=O)N1; dPhe(4-Cl) = N[C@H](Cc1ccc(Cl)cc1)C(=O)O; Phe(4-NH2) = Nc1ccc(C[C@H](N)C(=O)O)cc1; d2Nal = N[C@H](Cc1ccc2ccccc2c1)C(=O)O; Lys(iPr) = CC(C)NCCCC[C@H](N)C(=O)O; X1 = O=C1NC(=O)[C@H](CC(=O)*)N1; d3Pal = N[C@H](Cc1cccnc1)C(=O)O

[
  {
    "compound": "CC(=O)N[C@H](Cc1ccc2ccccc2c1)C(=O)N[C@H](Cc1ccc(Cl)cc1)C(=O)N[C@H](Cc1cccnc1)C(=O)N[C@@H](CO)C(=O)N[C@@H](Cc1ccc(NC(=O)[C@@H]2CC(=O)NC(=O)N2)cc1)C(=O)N[C@H](Cc1ccc(NC(N)=O)cc1)C(=O)N[C@@H](CC(C)C)C(=O)N[C@@H](CCCCNC(C)C)C(=O)N1CCC[C@H]1C(=O)N[C@H](C)C(N)=O [degarelix] (Ac-[d2Nal][dPhe(4-Cl)][d3Pal]S[Phe(4-NH2)](Dihydroorotyl(S))[dPhe(4-NHCONH2)]L[Lys(iPr)]P[dA]-NH2)",
    "unitString": "%",
    "remaining at 8 h, 2000 ng/mL": 104
  },
  {
    "compound": "CC(=O)N[C@H](Cc1ccc2ccccc2c1)C(=O)N[C@H](Cc1ccc(Cl)cc1)C(=O)N[C@H](Cc1cccnc1)C(=O)N[C@@H](CO)C(=O)N[C@@H](Cc1ccc(NC(=O)C[C@@H]2NC(=O)NC2=O)cc1)C(=O)N[C@H](Cc1ccc(NC(N)=O)cc1)C(=O)N[C@@H](CC(C)C)C(=O)N[C@@H](CCCCNC(C)C)C(=O)N1CCC[C@H]1C(=O)N[C@H](C)C(N)=O [5‐Aph(Hyd)‐degarelix] (Ac-[d2Nal][dPhe(4-Cl)][d3Pal]S[Phe(4-NH2)](X1)[dPhe(4-NHCONH2)]L[Lys(iPr)]P[dA]-NH2)",
    "unitString": "%",
    "remaining at 8 h, 2000 ng/mL": 103
  }
]
